Tested on: HCT-116
Protocol Notes: Cytotoxicity assay (cell titer-glo and calcein AM), HCT-116
Experimental Parameters: read-out: Cytotoxicity IC50, HCT-116, CTG; HCT-116; CTG (cell titer-glo) readout; % error in parentheses
Reported Endpoint: pIC50
Here pIC50 is given on a logarithmic scale as minus log10 of the concentration in mol/L.

Incoming: Give me measured pIC50, please, for this compound: COc1cc2c(c(OC)c1OC)-c1ccc(OC)c(=O)cc1C(NC(=O)CN(OC)C1CC(O)C(O)C(C)O1)CC2 [Col65, D-Digitoxoside]
Outgoing: 6.04

---

Can you tell me IC50 for the items I'm about to list?
Tested on: Du145
Protocol Notes: Cytotoxicity assay (cell titer-glo and calcein AM), Du145
Experimental Parameters: read-out: Cytotoxicity IC50, Du145, CTG; Du145; CTG (cell titer-glo) readout; % error in parentheses
# value in µM; strip the unit string

Incoming: Give me measured IC50, please, for this compound: COc1cc2c(c(OC)c1OC)-c1ccc(OC)c(=O)cc1[C@@H](NC(=O)CN(OC)[C@@H]1O[C@H](CO)[C@@H](O)[C@H](F)[C@H]1O)CC2 [Col33, 3-fluoro-3-deoxy-D-glucoside]
Outgoing: 9.6

Incoming: Give me measured IC50, please, for this compound: COc1cc2c(c(OC)c1OC)-c1ccc(OC)c(=O)cc1C(NC(=O)CN(OC)C1OC(C)C(O)C(O)C1O)CC2 [Col37, L-rhamnoside]
Outgoing: 5.81
